# Tested on: OVCAR-3
# MEASUREMENT_PROTOCOL: NCI tumour cell line growth inhibition, 48 h
Active and inactive are the calls of the source. No stated cut-off is given here; in the data, active = GI50 up to about 1.1 µM and inactive = higher.
Labels: YES for active, NO for inactive

• CCN(CC)CCCNc1nncc2c(C)c3[nH]c4ccc(OC)cc4c3cc12 = YES
• Cc1ccc(O)cc1.Cc1cccc(O)c1.Cc1ccccc1O = NO
• CC(=O)c1[nH]c(NCc2ccccc2)c(C(=S)Nc2ccccc2)c1N = NO

----------
# System: LOX IMVI
# MEASUREMENT_PROTOCOL: NCI tumour cell line growth inhibition, 48 h
The source made the active and inactive calls. No stated cut-off is given here; in the data, active = GI50 up to about 1.1 µM and inactive = higher.
Possible outcomes: True = active, False = inactive

- O=c1c2cc(-c3ccccc3)sc2nc2sc(-c3ccccc3)nn12: False
- COc1ccc(CC#N)c(OCc2ccccc2)c1: False
- O=C(O)c1ccccc1CC(Cc1ccccc1)C(=O)O (stereo unspecified): False
- O=c1c2c3c(sc2nc2n1N=CN(c1ccccc1)C2)CCCC3: False
- O=C(O)CC1OCC=C2C[N+]3([O-])CCC45c6ccccc6NC4C1C2CC53 (stereo unspecified): False
- CC(C)(C)C1=C(Br)C(OC(=O)C(F)(F)F)(C(C)(C)C)OP1(=O)c1ccccc1 (stereo unspecified): False
- O=C1NC(=S)NC(=O)C1=C(O)Nc1ccccc1: False
- CC(=O)c1[nH]c(NCc2ccccc2)c(C(=S)Nc2ccccc2)c1N: False
- CSc1cc(Br)ccc1-n1c(C(=O)c2ccccc2)c(SC)n(-c2ccccc2)c1=O: False
- Cc1ccc(NC(=O)CC(=O)n2nc(C)c(/N=N/c3ccccc3C(=O)O)c2C)cc1: False
- N#Cc1c(-c2ccco2)c2c(n(C3OC(CO)C(O)C(O)C3O)c1=S)CCCC2 (stereo unspecified): False
- O=C(C[n+]1ccccc1)N/N=C(\Cc1nc2ccc([N+](=O)[O-])cc2nc1O)C(=O)Nc1cc(Cl)c(Cl)cc1Cl: False
- N#Cc1ccc2[nH]c3c(c2c1)CC(=O)Nc1ccccc1-3: False
- CCOC(=O)CC1c2ccc(O)cc2OC(=O)C1c1ccc([N+](=O)[O-])cc1 (stereo unspecified): False
- COC(=O)C(=O)C(C(=O)C(=O)Nc1ccc(Cl)cc1Cl)c1nc2ccc(Cl)cc2nc1O (stereo unspecified): False
- COc1cc(C2S/C(=C/c3ccccc3)C(=O)N2c2cc(Cl)ccc2Cl)cc(OC)c1OC (stereo unspecified): False
- CCN(CC)CCC(=O)c1ccc(C)cc1: False
- CN(Cc1cnc2c(n1)C(N)=NN(N)N2)c1ccc(C(=O)NC(CCP(=O)(O)O)C(=O)O)cc1 (stereo unspecified): True
- COC(=O)C1(N2CCOCC2)CCC([C@@H](c2ccccc2)C(C)[N+](=O)[O-])C1 (stereo partly specified): False
- O[C@H]1[C@H](O)[C@@H](O)CN2CC[C@H](O)[C@H]12: False
- CCOP(=O)(OCC)/C(C#N)=C/c1cnc(-c2ccccc2)[nH]1: False
- COC(=O)[C@@H]1CS(=O)(=O)C(C(C)C)N1C(C)=O (stereo partly specified): False
- Cc1cn([C@@H]2C[C@H](CO)[C@@H]2O)c(=O)[nH]c1=O: False
- CCN(CC)c1ccc2cc(C(=O)Nc3ccccn3)c(=N)oc2c1: False
- CCCOc1ccc(-c2nc(-c3ccc(/N=C/c4ccc(N(CCOS(C)(=O)=O)CCOS(C)(=O)=O)cc4C)cc3)cs2)cc1: False
- COC(=O)C1=C(O)c2cc(OC)c(OC)c(OC)c2C(c2ccc3c(c2)OCO3)[C@@H]1C(=O)OC (stereo partly specified): False
- Cn1c2c(cc(-c3ccccc3)c1=O)COc1ccccc1-2: False
- C[C@@H]1O[C@@H](O[C@H]2[C@H](Oc3cc(O)c4c(=O)cc(-c5ccc(O)cc5)oc4c3)O[C@H](CO)[C@@H](O)[C@@H]2O)[C@H](O)[C@H](O)[C@H]1O: False
- COC(=O)c1ccc(NCC2=CC(=O)c3ccccc3C2=O)cc1: False
- Nc1cc([N+](=O)[O-])ccc1C(=O)N1CCC[C@H]1CO: False
- CN1CCN(CCSC2Cc3cc(Cl)ccc3Sc3ccccc32)CC1 (stereo unspecified): False

The measured values listed here are drawn from ChEMBL document CHEMBL1201862.
